Consider the following variants; for each one, report its denaturant midpoint (higher = more stable).
B1: Ribonuclease HI, P0A7Y4 (parent)
chain: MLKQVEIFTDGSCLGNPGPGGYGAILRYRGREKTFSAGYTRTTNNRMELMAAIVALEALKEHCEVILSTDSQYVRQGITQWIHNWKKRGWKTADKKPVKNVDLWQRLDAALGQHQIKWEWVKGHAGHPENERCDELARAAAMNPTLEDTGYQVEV

# Variants of: B1
# COND: Escherichia coli (strain K12); pH 5.5; 25 °C; GdnHCl; Fluorescence; Sodium acetate 20 mM; NaCl 0.1 M; reversible: yes; structure 2RN2; whole UniProt chain shown
Answers are plain numbers, in M.

Completed entries (count: 3):
>>> df
   variant_identifier  value_measured
0               H114A            1.57
1               H127A            1.74
2               H124A            1.82

Then this variant:
get_value(item= "H62A" , readout=denaturant midpoint (higher = more stable)) returns 1.86
